biological target: Neuronal acetylcholine receptor subunit alpha-7 (Mus musculus); test: Displacement of [125I]alpha-bungarotoxin from alpha7 nAChR in C57BL/6J mouse hippocampal membrane
Sequence (P49582 whole entry): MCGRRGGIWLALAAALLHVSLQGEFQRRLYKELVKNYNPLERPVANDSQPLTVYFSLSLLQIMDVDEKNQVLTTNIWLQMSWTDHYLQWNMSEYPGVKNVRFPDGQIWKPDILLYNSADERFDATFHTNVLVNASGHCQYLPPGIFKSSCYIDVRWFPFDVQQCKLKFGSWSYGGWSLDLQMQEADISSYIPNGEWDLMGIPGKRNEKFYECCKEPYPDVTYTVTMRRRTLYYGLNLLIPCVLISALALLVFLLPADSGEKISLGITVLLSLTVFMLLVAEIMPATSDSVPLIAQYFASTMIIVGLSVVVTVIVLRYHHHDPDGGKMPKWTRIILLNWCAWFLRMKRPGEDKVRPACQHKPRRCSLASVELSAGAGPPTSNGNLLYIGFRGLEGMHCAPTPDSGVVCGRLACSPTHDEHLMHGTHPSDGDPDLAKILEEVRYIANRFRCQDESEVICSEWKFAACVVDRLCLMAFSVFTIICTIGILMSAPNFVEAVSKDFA
pKi: −log10 of the molar value.

SMILES_REPRESENTATION	pKi
CNCC/C=C/c1cccnc1.O=C(O)[C@@H](O)[C@H](O)[C@H](O)[C@@H](O)C(=O)O	< 5.00
C(=C\[C@@H]1CCNC1)/c1cncnc1.O=C(O)[C@@H](O)[C@H](O)[C@H](O)[C@@H](O)C(=O)O	< 5.00
CNCC/C=C/c1cncnc1.O=C(O)[C@@H](O)[C@H](O)[C@H](O)[C@@H](O)C(=O)O	< 5.00
